Sourced from patent US11998008B2

Entries and their MFC
tested on: R. solani; assay: microbe, parasite or virus in culture; format: cell-based; conditions: Rhizoctonia solani; R. solani; NA + number = still viable in the highest concentration tested (given as >); read-out: M - Mortality, minimal concentration that killed the fungus

// below: answered compounds
| compound | experimentalResult |
| --- | --- |
| CCCCCCCCCC=O | > 25 µg/mL |
| CCCCC/C=C/C=O [trans-2-octenal] | 6.25 µg/mL |
| CCCCCC/C=C/C=O [trans-2-nonenal] | > 25 µg/mL |
| O=C1CCCCC1 | > 250 µg/mL |

Now examine the next entry.
Q: Fetch value of MFC on R. solani for `CC=CCC#N` .
Ans: > 25 µg/mL

* * *

Recorded MFC, one value per entry.
system: R. solani; experiment: microbe, parasite or virus in culture; assay type: cell-based; settings: Rhizoctonia solani; R. solani; NA + number = still viable in the highest concentration tested (given as >); read-out: M - Mortality, minimal concentration that killed the fungus
API: value field is a number in µg/mL; no unit string.

| molecule | endpointUnit | MFC |
| --- | --- | --- |
| CCCCCCCC=O | µg/mL | 12.5 |
| CCCC/C=C/C=O [trans-2-heptenal] | µg/mL | 12.5 |
| CCC/C=C/C=O [trans-2-hexen-1-al] | µg/mL | 12.5 |

Q: // fetch MFC given entry CC/C=C/C=O [trans-2-pentenal]
Ans: 25

* * *

Recorded MFC by entry
System: R. solani
Test: microbe, parasite or virus in culture
Type: cell-based
Settings: Rhizoctonia solani; R. solani; NA + number = still viable in the highest concentration tested (given as >); read-out: M - Mortality, minimal concentration that killed the fungus
Method: Each compound was placed on a disconnected cover from an Eppendorf tube that was located in the middle of the Petri dish and a hyphae-containing plug of each test fungus was added to the culture plate. […] At the end of the assay, the viability of each test fungus was evaluated by transferring inoculum plugs to fresh PDA plates and observing the growth that developed within the next 2 days. […]

Illustrative cases are given below, each with its answer.
| smilesText | MFC |
| --- | --- |
| O=C1CCCCCC1 | > 250 µg/mL |
| CCCCCCCCC=O | > 25 µg/mL |

Q: Name the recorded MFC of `O=C1C=CCC1` , assay system R. solani.
Ans: > 25 µg/mL
